- tested-system: JAK3 (Homo sapiens)
- Construct: All enzymes only contain the catalytic domain; His (N)
- Sequence (P52333 822-1111 limits assumed): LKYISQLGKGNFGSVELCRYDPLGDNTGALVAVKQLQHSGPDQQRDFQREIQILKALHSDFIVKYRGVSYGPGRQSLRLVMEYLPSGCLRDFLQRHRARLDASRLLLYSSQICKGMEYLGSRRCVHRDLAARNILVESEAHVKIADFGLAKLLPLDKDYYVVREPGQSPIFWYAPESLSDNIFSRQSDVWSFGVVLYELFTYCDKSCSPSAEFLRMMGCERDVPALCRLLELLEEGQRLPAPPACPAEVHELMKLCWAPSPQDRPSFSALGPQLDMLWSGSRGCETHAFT
- assay-remarks: In vitro enzyme assay (cell-free HTRF kinase assay), JAK3
- run-conditions: catalytic domain, His-tag; ATP 3 μM, SRCtide 100 nM, reaction 30 min
pIC50: −log10 of the molar value.
Examples of compounds with documented pIC50 follow.

NCCNC(=O)c1cc(Cl)c(C(=O)n2ccc3c(NC(=O)C4CC4)nccc32)c(Cl)c1    > 7.30
O=C(Nc1nccc2c1ccn2C(=O)c1c(Cl)cc(-c2cncnc2)cc1Cl)C1CC1    > 6.30
Cc1noc(C)c1-c1cc(Cl)c(C(=O)n2ccc3c(NC(=O)C4CC4)nccc32)c(Cl)c1    > 6.00
CCNC(=O)c1cc(Cl)c(C(=O)n2ccc3cnc(NC(=O)C4CC4)cc32)c(Cl)c1    > 7.00

**Q:** Annotate the compound O=C(NCCF)c1cc(Cl)c(C(=O)n2ccc3c(NC(=O)C4CC4)nccc32)c(Cl)c1 with its measured pIC50.
**A:** > 6.30

**Q:** State its pIC50: N#Cc1cc(Cl)c(C(=O)c2c[nH]c3cnccc23)c(Cl)c1
**A:** > 6.30

**Q:** Using known records, supply pIC50 for Nc1cc(Cl)c(C(=O)c2c[nH]c3cnccc23)c(Cl)c1
**A:** > 6.00
